I'd appreciate it if you could supply TGI values for the items below.
Tested on: NCI-H522 lung
Assay Protocol: NCI tumour cell line growth inhibition, 48 h
*1 amine or outer side, *2 acyl side, *3 side chain or, on linkers, in order; H or OH if unused. Where a SMILES comes first, the peptide text is derived from it. Bridges are numbered along the chain shown (N, C = ends). [ ]: non-standard residue; d: D form. ξ: configuration not given here. X4 = CCC(C)C(N[*:1])C(O)CC(=O)O[C@H](C(=O)C(C)C(=O)[*:2])C(C)C; NMeY = CN[C@@H](Cc1ccc(O)cc1)C(=O)O; ξNMeL = CNC(CC(C)C)C(=O)O; ξT = CC(O)C(N)C(=O)O

# input Find the recorded TGI belonging to CC(=O)N/C(=C\c1ccc(/C=C(\NC(C)=O)c2nc3ccc(Cl)cc3[nH]2)cc1)c1nc2ccccc2[nH]1 and report it.
# output > 100 µM

# input What TGI value was documented for this molecule, Oc1ccc(N=Nc2ccc(Cl)cc2)cc1 ?
# output 25 µM

# input molecule: COc1ccc(OC)c2cc(Cc3ccc(N(C)C)cc3)c(=O)c(Cc3ccc(N(C)C)cc3)cc12 ; wanted: its TGI
# output 89.9 µM

# input Give its TGI value. Item: COC(=O)c1c(-c2ccccc2)cc2c3cc(-c4ccccc4)c(C(=O)OC)n3c3ccccc3n12
# output > 100 µM

# input Would you mind telling me what TGI value was observed for COc1cc2nc(-c3ccc(C(F)(F)F)cc3)cc(OCCCN3CCOCC3)c2cc1OC ?
# output 15.3 µM

# input TGI for O=C(NCCO)c1ccc(Cl)cc1 ?
# output > 100 µM

# input # get_value(readout='TGI', item= CC(C)c1ccc(Cc2cnc(NC(=O)c3cc(Br)cs3)s2)cc1 )
# output 5.76 µM

# input Sample COc1cc(OC)c(/C=C/c2ccc3ccccc3[n+]2C)c(OC)c1 — what was its TGI?
# output 6.25 µM

# input I would be grateful if you could share the reported TGI for CCOC(=O)[C@@H](C)C[C@H](Cc1ccccc1)NC(=O)c1csc([C@@H](C[C@H](C(C)C)N(C)C(=O)[C@@H](NC(=O)[C@H]2C[C@H](O[Si](C)(C)C(C)(C)C)CCN2C)C(C)C)OC(C)=O)n1 .
# output 1.03 µM

# input Fill blank: measured TGI of the molecule CCCC(=O)c1c(NOC2OC(COC(C)=O)C(OC(C)=O)C(OC(C)=O)C2OC(C)=O)nc(OC)n(C)c1=O (centres undefined) is ____.
# output > 100 µM

# input Entry CCC(C)C1NC(=O)C(NC(=O)C(CC(C)C)N(C)C(=O)[C@@H]2CCCN2)C(C)OC(=O)[C@H](Cc2ccc(OC)cc2)N(C)C(=O)[C@@H]2CCCN2C(=O)[C@H](CC(C)C)NC(=O)C(C)C(=O)[C@H](C(C)C)OC(=O)CC1O (some centres undefined) (H-P[ξNMeL][ξT][X4]LP[NMeY](Me); ester 3-C) has what TGI?
# output 0.00653 µM

# input Return reported TGI; argument: N#CC(C#N)=C(N)/C(C#N)=C\c1ccnc2ccccc12
# output 89.1 µM

# input Quick check: TGI of Cc1nn(C(=O)c2ccccc2O)c2c1C(c1ccccc1)SC(N)=N2 (centres undefined) ?
# output > 10 µM

# input I'd like to know its TGI. The molecule in question is COc1ccc(CNc2nc(NCc3ccc(OC)cc3)nc(N3CCOCC3)n2)cc1
# output > 100 µM

# input Any idea what its TGI is? The molecule is C=CC(=O)N1CCCC(n2nc(-c3ccc(Oc4ccccc4)cc3)c3c(N)ncnc32)C1 (centres undefined)
# output 9.31 µM

# input Find the recorded TGI belonging to O=[N+]([O-])c1c(/C=N/Nc2ccccc2)oc(-c2ccc3c(c2)OCO3)c1-c1ccc2c(c1)OCO2 and report it.
# output > 100 µM

# input Item under review: Cc1cc(S(=O)(=O)Nc2nnc3cc(C(F)(F)F)cc(C)n23)c(S)cc1Cl . Reported TGI?
# output > 100 µM

# input Value lookup for TGI; key = CCOP(=O)(OCC)C(Nc1ccc(F)cc1)c1cccc([N+](=O)[O-])c1 (centres undefined)
# output > 100 µM

# input Param item = CC1=CSC2=NC(c3ccc(Cl)c(Cl)c3)=CC(c3ccc(Cl)cc3)N12 (centres undefined) ; retrieve measured TGI.
# output > 100 µM

====

Could you please report measured TGI for the items listed next?
System: SNB-75 CNS
Assay Protocol: NCI tumour cell line growth inhibition, 48 h
Write the number in µM without appending the unit.

# input # query: TGI of entry O=C1NC(N/N=C\c2ccccc2)=N/C1=C/c1ccc(Cl)cc1
# output 42.2

# input Reported TGI, molecule COc1cc(/C=C/c2cc(C(F)(F)F)[nH]c(=O)n2)ccc1OCc1ccccc1F : ____
# output 56.7

# input TGI for CN1CCN(Cc2ccc(NC(=O)c3cncc(C#Cc4cnc(N)c5ccc(F)cc45)c3)cc2C(F)(F)F)CC1 ?
# output 5.71

# input // lookup TGI for CN1CCN(CCSC2Cc3cc(Cl)ccc3Sc3ccccc32)CC1 (centres undefined)
# output 15.7

# input Which measured TGI value corresponds to O=C(Nc1ccccc1)c1ccc(Cl)c([N+](=O)[O-])c1 ?
# output 71.6

# input Give the measured TGI of CCCCCCC/C=C/[C@H]1O[C@]23C(=O)C[C@@]4(C[C@@H](OC5OC(CO)C(O)C(O)C5O)C[C@@H]4[C@H]2C=C1C)OC3=O (some centres undefined) .
# output 7.17

# input Returns the measured TGI for the input molecule. Input: CSCCC(NC(=O)OC(C)(C)C)C(=O)NCCNc1ccc(NCCNC(=O)C(CCSC)NC(=O)OC(C)(C)C)c2c1C(=O)c1ccccc1C2=O (centres undefined)
# output 8.54

# input Need TGI, item CCCCN(c1ccccc1)c1ncnc2c1cnn2C
# output 55.9

# input Entry under review: O=C(O)C1CCc2ccc3ccccc3c2C1c1cccc2ccccc12 (centres undefined) . Reported TGI?
# output 90.1

# input Given CC1=CC[C@@H]2CC[C@]3(C)[C@H](CC[C@@H]4[C@@]5(C)CCCNC(C)(C)[C@@H]5CC[C@]43C)[C@H]2[C@@H]1C , state its recorded TGI.
# output 3.84

# input # lookup: TGI of CCCCNc1nc(NC(C)(C)C)nc(NC(C)(C)C)n1
# output 68.7

====

System: HT29 colon
Assay Protocol: NCI tumour cell line growth inhibition, 48 h
Result Type: TGI (µM)
Use µM as the unit, but write only the number.

# input So what does the record say about TGI for Cc1[nH]c(-c2ccccc2)c(-c2ccc(Cl)cc2)c1C(=O)ONC(=O)c1ccccc1 ?
# output 22.9

# input Reported TGI for COc1cccc(-c2nc3sccn3c2-c2ccnc(NCCNC(=O)Nc3cccc(C(F)(F)F)c3)n2)c1 : what is it?
# output 14

# input // lookup TGI for O=C1c2ccccc2CC12Cc1ccc3c(c1C2)CCC3 (configuration not stated)
# output 29.2

# input Fill in the blank: the reported TGI of O=C1C=CC(=O)c2ncccc21 is ____.
# output 16.7

# input Fill blank: measured TGI of the compound CCOC(=O)CCC(=O)C1c2cccc(O)c2C(=O)c2c(O)cccc21 is ____.
# output 6.24

# input Look up TGI for this compound: O=C(O)C1CCc2ccc3ccccc3c2C1c1cccc2ccccc12 (configuration not stated)
# output 32.7

# input So what's the measured TGI for this one? Cc1nc2ccc(C(F)(F)F)cc2nc1Nc1ccc(Cl)c(Cl)c1
# output 18.6

# input Give its TGI value. Item: N#Cc1c2c(c(N3CCOCC3)n3c1nc1ccccc13)CCCC2
# output 38.6

====

Test system: MDA-N
Assay Protocol: NCI tumour cell line growth inhibition, 48 h
Would you mind telling me the reported TGI of each entry?
Write down the numeric answer in µM and omit the unit.

# input Short answer please: TGI, MDA-N, entry COC(=O)C(COC(=O)/C=C/c1ccc(OC(C)=O)c(OC(C)=O)c1)OC(=O)/C=C/c1ccc(OC(C)=O)c(OC(C)=O)c1 (stereo not given)
# output 21.7

# input Item: Cc1c(CCCl)c(=O)n2c([nH]c3ccccc32)c1C#N Test system: MDA-N Read-out: TGI Value: ?
# output 3.33

# input Quick check: TGI on MDA-N, item O=c1oc2ccccc2c(O)c1/C=N\c1nc(-c2ccccc2)cs1 ?
# output 16

# input Test system MDA-N; read-out TGI; what value for O=C1c2ccccc2CC12Cc1ccc3c(c1C2)CCC3 (stereo not given) ?
# output 44.4

====

For each entry below, report its TGI value.
Tested on: NCI-H460 lung
Assay Protocol: NCI tumour cell line growth inhibition, 48 h

# input Which TGI value is on record for Cc1nc2ccc(C(F)(F)F)cc2nc1Nc1ccc(Cl)c(Cl)c1 ?
# output 10.5 µM

# input Looking for the measured TGI of CCOC(=O)[C@@H](C)C[C@H](Cc1ccccc1)NC(=O)c1csc([C@@H](C[C@H](C(C)C)N(C)C(=O)[C@@H](NC(=O)[C@H]2C[C@H](O[Si](C)(C)C(C)(C)C)CCN2C)C(C)C)OC(C)=O)n1 , can you help?
# output 1.34 µM

# input Query (molecule): C/C=C/[C@H]1O[C@@](OC)([C@@H](C)[C@H](O)[C@H](C)[C@H]2OC(=O)/C(OC)=C/C(C)=C/[C@@H](C)[C@@H](O)[C@@H](C)[C@@H](O)[C@H](C)C/C(C)=C/C=C/[C@@H]2OC)CC(OC2CC(O)C(OC(N)=O)C(C)O2)[C@@H]1C (stereo partly specified) ; field requested: TGI
# output 4.17 µM

# input TGI lookup needed for NC(=O)CC(Nc1ncc2c(n1)-c1ccccc1OC2)C(=O)O (stereo unspecified) , thanks.
# output > 100 µM

# input Fill in: TGI of O=C(Oc1ccc(O)c2c(=O)n3c(cc12)[nH]c1ccccc13)c1ccccc1 is ___
# output > 100 µM

# input What value of TGI has been reported for the following molecule? COC(OC)C(O)C1OC=CC1n1cnc2c(N)ncnc21 (stereo unspecified)
# output > 100 µM

# input Can you look up the measured TGI of COC(=O)c1cncc2c1CC1C3(C(=O)OC)C=NC(C4C(CO)=CCC43)C21C (stereo unspecified) for me?
# output > 100 µM

# input Returns the measured TGI for the input molecule. Input: CC(=O)OCC1OC(n2c(-c3ccccc3)cc(-c3ccco3)c(C#N)c2=O)C(OC(C)=O)C(OC(C)=O)C1OC(C)=O (stereo unspecified)
# output > 100 µM

# input Need TGI, item CCOP(=O)(OCC)C(Nc1ccc(F)cc1)c1cccc([N+](=O)[O-])c1 (stereo unspecified)
# output > 100 µM

# input Request the reported TGI associated with CC1CC(c2ccccc2)=Nc2ccccc2S1(=O)=O (stereo unspecified)
# output 34.9 µM

# input Quick one: TGI of CCC(=O)c1cn(C)c(=O)c2ccccc12 ?
# output > 100 µM

# input I would be grateful if you could share the reported TGI for CCCCNc1nc(NC(C)(C)C)nc(NC(C)(C)C)n1 .
# output > 100 µM

# input Need TGI, item CSC(=NC1=NC(C(F)(F)F)(C(F)(F)F)N=C(c2ccccc2)O1)SC
# output > 100 µM

# input Quick one: TGI for COc1cc2c(cc1OCc1ccccc1)N=C[C@@H]1C/C(=C/C(=O)NCCCN3C(=O)c4cccc5cccc(c45)C3=O)CN1C2=O ?
# output 7.15 µM

# input Tell me the measured TGI of CC(=O)Oc1cc(C)ccc1[C@]1(C)CC[C@H](C)/C1=C\Br , please.
# output 15.2 µM

# input Quick one: TGI for COC1/C=C/C(C)C(C(C)C(OC)C(C)CCC(=O)C(C)C(CCC(=O)O)OC)OC(=O)/C=C/C=C(\C)CC(OC)CC2=CC(=O)O[C@@H](C(C)C(OC)CC(OC)/C=C/C(C)C(OC)C1)[C@H]2O (stereo partly specified) ?
# output > 5 µM

# input What does the data say about its TGI? Entry: O=c1cc(-c2ccccc2)[nH]c2cccc(S)c12
# output > 100 µM

# input Param item = NC(=O)c1c[se]c(C2OC(CO)C(O)C2O)n1 (stereo unspecified) ; retrieve measured TGI.
# output > 100 µM

# input Which TGI value belongs to O=C(O)C1CCc2ccc3ccccc3c2C1c1cccc2ccccc12 (stereo unspecified) ?
# output 38.2 µM

# input Need TGI of CCOC(=O)C(Cc1ccccc1)(Cc1ccc(O)cn1)NC(=O)c1ccccc1 (stereo unspecified) , thanks.
# output 99.2 µM

# input Give the measured TGI of N#CCc1nc(C#N)c(N)o1 .
# output > 100 µM
